Assay Name: cytotoxicity, MTT method
Assay type: cell-based
Measurement Conditions: human, MDA-MB-231 cells; MDA-MB-231 cell line; read-out: IC50, cytotoxic activity toward MDA-MB-231
Property Label: IC50 (µM)

Molecule	Property Label	Readout Value
C=C1CCC2(O)CC3(CCC(C(C)C)C3C1)OO2 (stereo not shown)	IC50	32.3

* * *

Test system: influenza A virus (H1N1)
Assay Name: antiviral activity, CPE inhibition assay
Format: cell-based
Measurement Conditions: positive control, strain (H1N1 or PR8) not specified, read-out: IC50 of positive control, influenza A viruses
pIC50: −log10 of the molar value.

Compound	pIC50
NC(=O)c1ncn([C@@H]2O[C@H](CO)[C@@H](O)[C@H]2O)n1 [ribavirin, reference compound]	3.99

* * *

Test system: influenza A virus (PR8)
Assay Name: antiviral activity, CPE inhibition assay
Type: cell-based
Measurement Conditions: read-out: IC50 against influenza A virus PR8
Property Label: IC50 (µM)

Compound	Property Label	Quantity Unit	Readout Value
C=C1CCC2(O)CC3(CCC(C(C)C)C3C1)OO2 (stereo not shown)	IC50	µM	443

* * *

Assay Name: cytotoxicity, MTT method
Format: cell-based
Measurement Conditions: human, HeLa cells; HeLa cell line; read-out: IC50, cytotoxicity against HeLa
Property Label: IC50 (µM)

Compound	Property Label	Quantity Unit	Readout Value
C=C(C)[C@@H]1C/C=C2\C(=O)O[C@@H](C[C@]3(C)CC(=O)[C@H](CC(=O)C1)O3)[C@@H]2O [Compound 20, 5-episinuleptolide]	IC50	µM	11.6

* * *

System: Plasmodium falciparum 3D7
Assay Name: in vitro antimalarial activity, SYBR-Green assay
Type: cell-based
Measurement Conditions: 10 nM dihydroartemisinine as positive control, read-out: IC50, antimalarial activity against P. falciparum 3D7
pIC50: −log10 of the molar value.

Compound	pIC50
C=C1CCC2(O)CC3(CCC(C(C)C)C3C1)OO2 (stereo not shown)	4.10

* * *

Assay Name: cytotoxicity, MTT method
Assay type: cell-based
Measurement Conditions: human, Jurkat cells; Jurkat cell line; read-out: IC50, cytotoxic activity toward Jurkat
pIC50: −log10 of the molar value.
Property Label: pIC50

Compound	Property Label	Readout Value
C=C1CCC2(O)CC3(CCC(C(C)C)C3C1)OO2 (stereo not shown) [Compound 1, Sinuketal]	pIC50	4.60

* * *

Assay Name: cytotoxicity, MTT method
Type: cell-based
Measurement Conditions: human, U2OS cells; U2OS cell line; read-out: IC50, cytotoxic activity toward U2OS
pIC50: −log10 of the molar value.
Property Label: pIC50

Compound	Property Label	Readout Value
C=C1CCC2(O)CC3(CCC(C(C)C)C3C1)OO2 (stereo not shown)	pIC50	4.38

* * *

Assay Name: cytotoxicity, MTT method
Format: cell-based
Measurement Conditions: human, HCT-116 cells; HCT-116 cell line; read-out: IC50, cytotoxicity against HCT-116
pIC50: −log10 of the molar value.

Molecule	pIC50
C=C(C)[C@@H]1C/C=C2\C(=O)O[C@@H](C[C@]3(C)CC(=O)[C@H](CC(=O)C1)O3)[C@@H]2O [Compound 20, 5-episinuleptolide]	4.48

// provenance: paper PMC5923414
